For each entry below, report its MIC value.
system: Klebsiella pneumoniae; experiment: Antibacterial activity against Klebsiella pneumoniae ATCC BAA-2146 expressing NDM-1 after 18 hrs by 2 fold serial dilution method; type: functional; settings: ATCC BAA-2146, 18 h
Bridge positions count the residues as written; N and C are the ends. Square brackets hold non-standard residues; d marks the D form. Peptide text beside a SMILES is read from it. * marks the point of attachment. Octanoyl = CCCCCCCC(=O)*; Dab = NCC[C@H](N)C(=O)O
Numbers only, in mg/L.

CCCCCCCC(=O)N[C@@H](CCN)C(=O)N[C@H](C(=O)N[C@@H](CCN)C(=O)N[C@H]1CCNC(=O)[C@H]([C@@H](C)O)NC(=O)[C@H](CCN)NC(=O)[C@H](CCCNC(=N)N)NC(=O)[C@H](CC(C)C)NC(=O)[C@@H](Cc2ccccc2)NC(=O)[C@H](CCN)NC1=O)[C@@H](C)O | 0.5
CCCCCCCC(=O)N[C@@H](CCN)C(=O)N[C@H](C(=O)N[C@@H](CCN)C(=O)N[C@H]1CCNC(=O)[C@H]([C@@H](C)O)NC(=O)[C@H](CCNC(=O)[C@@H](N)CCC(=O)O)NC(=O)[C@H](CCN)NC(=O)[C@H](CC(C)C)NC(=O)[C@@H](Cc2ccccc2)NC(=O)[C@H](CCN)NC1=O)[C@@H](C)O (Octanoyl-[Dab]T[Dab][Dab][Dab][dF]L[Dab][Dab](Glu)T; lactam 4-C) | 4

Now turn to the next compound.
Asked: Under Klebsiella pneumoniae, report MIC for `CCCCCCCC(=O)N[C@@H](CCN)C(=O)N[C@H](C(=O)N[C@@H](CCN)C(=O)N[C@H]1CCNC(=O)[C@H]([C@@H](C)O)NC(=O)[C@H](CCN)NC(=O)[C@H](Cc2ccc(N)cc2)NC(=O)[C@H](CC(C)C)NC(=O)[C@@H](Cc2ccccc2)NC(=O)[C@H](CCN)NC1=O)[C@@H](C)O`
Given back: 2

---

For each entry below, report its MIC value.
tested on: Acinetobacter baumannii; assay: Antibacterial activity against Acinetobacter baumannii ATCC 19606 after 18 hrs by 2 fold serial dilution method; assay type: functional; conditions: ATCC 19606, 18 h
Numbered stars: 1 amine (or outer) side, 2 acyl side, 3 side chain; on linkers, the order of the positions; unused ones are H or OH. Bridge positions count the residues as written; N and C are the ends. Square brackets hold non-standard residues; d marks the D form. Peptide text beside a SMILES is read from it. * marks the point of attachment. Benzoyl(4-OPh) = O=C(c1ccc(Oc2ccccc2)cc1)*; NH(2-ClPh) = Clc1ccccc1N*; dDab = NCC[C@@H](N)C(=O)O; Octanoyl = CCCCCCCC(=O)*; Dab = NCC[C@H](N)C(=O)O; CO = O=C([*:1])[*:2]
Give bare numbers, in µg/mL.

Some compounds with known MIC results, for comparison:
CCCCCCCC(=O)N[C@@H](CCN)C(=O)N[C@H](C(=O)N[C@@H](CCN)C(=O)N[C@H]1CCNC(=O)[C@H]([C@@H](C)O)NC(=O)[C@H](CCN)NC(=O)[C@H](CCN)NC(=O)[C@H](CC(C)C)NC(=O)[C@@H](Cc2ccccc2)NC(=O)[C@H](CCNC(=O)[C@@H](N)CCCNC(=N)N)NC1=O)[C@@H](C)O (Octanoyl-[Dab]T[Dab][Dab][Dab](Arg)[dF]L[Dab][Dab]T; lactam 4-C) | 32
CC(C)C[C@@H]1NC(=O)[C@@H](Cc2ccccc2)NC(=O)[C@H](CCN)NC(=O)[C@@H](NC(=O)[C@H](CCN)NC(=O)[C@@H](NC(=O)[C@H](CCN)NC(=O)Nc2ccccc2Cl)[C@@H](C)O)CCNC(=O)[C@H]([C@@H](C)O)NC(=O)[C@H](CCN)NC(=O)[C@H](CCN)NC1=O ({NH(2-ClPh)-CO}-[Dab]T[Dab][Dab][Dab][dF]L[Dab][Dab]T; lactam 4-C) | 1

Dear reader, for each entry below, please note its MIC.
1. CCCCCCCC(=O)N[C@@H](CCN)C(=O)N[C@H](C(=O)N[C@@H](CCN)C(=O)N[C@H]1CCNC(=O)[C@H]([C@@H](C)O)NC(=O)[C@H](CCNC(=O)[C@@H](N)CCCNC(=N)N)NC(=O)[C@H](CCN)NC(=O)[C@H](CC(C)C)NC(=O)[C@@H](Cc2ccccc2)NC(=O)[C@H](CCN)NC1=O)[C@@H](C)O (Octanoyl-[Dab]T[Dab][Dab][Dab][dF]L[Dab][Dab](Arg)T; lactam 4-C)
2. CC(C)C[C@@H]1NC(=O)[C@@H](Cc2ccccc2)NC(=O)[C@H](CCN)NC(=O)[C@@H](NC(=O)[C@H](CCN)NC(=O)[C@@H](NC(=O)[C@H](CCN)NC(=O)c2ccc(Oc3ccccc3)cc2)[C@@H](C)O)CCNC(=O)[C@H]([C@@H](C)O)NC(=O)[C@H](CCN)NC(=O)[C@H](CCN)NC1=O ({Benzoyl(4-OPh)}-[Dab]T[Dab][Dab][Dab][dF]L[Dab][Dab]T; lactam 4-C)
3. CCCCCCCC(=O)N[C@@H](CCN)C(=O)N[C@H](C(=O)N[C@H](CCN)C(=O)N[C@H]1CCNC(=O)[C@H]([C@@H](C)O)NC(=O)[C@H](CCN)NC(=O)[C@H](CCN)NC(=O)[C@H](CC(C)C)NC(=O)[C@@H](Cc2ccccc2)NC(=O)[C@H](CCN)NC1=O)[C@@H](C)O (Octanoyl-[Dab]T[dDab][Dab][Dab][dF]L[Dab][Dab]T; lactam 4-C)

Given back:
16
0.5
1
